Recorded values, source ChEMBL document CHEMBL3407465.

Molecular target: Solute carrier organic anion transporter family member 1B3 (Homo sapiens, UniProt Q9NPD5)
Sequence (Q9NPD5 whole entry): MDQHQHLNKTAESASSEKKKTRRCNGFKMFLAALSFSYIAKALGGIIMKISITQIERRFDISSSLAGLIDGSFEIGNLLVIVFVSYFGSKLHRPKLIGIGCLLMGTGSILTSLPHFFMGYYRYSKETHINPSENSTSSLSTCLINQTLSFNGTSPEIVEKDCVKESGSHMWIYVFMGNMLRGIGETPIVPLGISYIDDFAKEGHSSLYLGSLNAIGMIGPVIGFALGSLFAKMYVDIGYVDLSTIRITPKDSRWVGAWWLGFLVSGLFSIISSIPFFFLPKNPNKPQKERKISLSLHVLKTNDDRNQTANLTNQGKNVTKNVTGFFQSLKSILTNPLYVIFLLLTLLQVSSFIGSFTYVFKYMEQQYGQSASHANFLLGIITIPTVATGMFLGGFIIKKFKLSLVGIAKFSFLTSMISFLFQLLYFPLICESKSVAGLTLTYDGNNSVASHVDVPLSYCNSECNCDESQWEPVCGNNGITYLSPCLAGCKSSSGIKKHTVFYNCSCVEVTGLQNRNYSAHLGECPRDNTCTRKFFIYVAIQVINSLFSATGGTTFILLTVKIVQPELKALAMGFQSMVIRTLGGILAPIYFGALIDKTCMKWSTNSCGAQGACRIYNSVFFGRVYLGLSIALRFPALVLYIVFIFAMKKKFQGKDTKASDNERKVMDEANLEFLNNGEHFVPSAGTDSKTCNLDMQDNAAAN
Recorded Ki, one value per entry.
result type: Ki

O=C(O)CCCc1ccc(N(CCCl)CCCl)cc1 | 37.4 µM
O=C1c2c(O)ccc(O)c2C(=O)c2c(NCCNCCO)ccc(NCCNCCO)c21 | 3.1 µM
CC(=O)O[C@H]1C(=O)[C@@]2(C)[C@H]([C@H](OC(=O)c3ccccc3)[C@]3(O)C[C@H](OC(=O)[C@H](O)[C@@H](NC(=O)c4ccccc4)c4ccccc4)C(C)=C1C3(C)C)[C@]1(OC(C)=O)CO[C@@H]1C[C@@H]2O | 1.8 µM

###

Target: Solute carrier organic anion transporter family member 1B3 (Homo sapiens)
Assay: Stimulation of human OATP1B3-mediated [3H]CCK-8 at 100 uM after 5 mins relative to control
Type: ADME
Recorded Activity, one value per entry.
result type: Activity (%)

O=P1(N(CCCl)CCCl)NCCCO1 (stereo unspecified) [CYCLOPHOSPHAMIDE ANHYDROUS] | 8.7
Nc1ccn([C@@H]2O[C@H](CO)[C@@H](O)[C@@H]2O)c(=O)n1 [CYTARABINE] | 17.7
CN(Cc1cnc2nc(N)nc(N)c2n1)c1ccc(C(=O)N[C@@H](CCC(=O)O)C(=O)O)cc1 [METHOTREXATE] | 12
Nc1nc(F)nc2c1ncn2[C@@H]1O[C@H](CO)[C@@H](O)[C@@H]1O [FLUDARABINE] | 12
Nc1nc(Cl)nc2c1ncn2[C@H]1C[C@H](O)[C@@H](CO)O1 [CLADRIBINE] | 10
Nc1ccn([C@@H]2O[C@H](CO)[C@@H](O)C2(F)F)c(=O)n1 [GEMCITABINE] | 11.1

###

Recorded Activity, one value per entry.
Biological target: Solute carrier organic anion transporter family member 1B1 (Homo sapiens)
Sequence (Q9Y6L6 whole entry): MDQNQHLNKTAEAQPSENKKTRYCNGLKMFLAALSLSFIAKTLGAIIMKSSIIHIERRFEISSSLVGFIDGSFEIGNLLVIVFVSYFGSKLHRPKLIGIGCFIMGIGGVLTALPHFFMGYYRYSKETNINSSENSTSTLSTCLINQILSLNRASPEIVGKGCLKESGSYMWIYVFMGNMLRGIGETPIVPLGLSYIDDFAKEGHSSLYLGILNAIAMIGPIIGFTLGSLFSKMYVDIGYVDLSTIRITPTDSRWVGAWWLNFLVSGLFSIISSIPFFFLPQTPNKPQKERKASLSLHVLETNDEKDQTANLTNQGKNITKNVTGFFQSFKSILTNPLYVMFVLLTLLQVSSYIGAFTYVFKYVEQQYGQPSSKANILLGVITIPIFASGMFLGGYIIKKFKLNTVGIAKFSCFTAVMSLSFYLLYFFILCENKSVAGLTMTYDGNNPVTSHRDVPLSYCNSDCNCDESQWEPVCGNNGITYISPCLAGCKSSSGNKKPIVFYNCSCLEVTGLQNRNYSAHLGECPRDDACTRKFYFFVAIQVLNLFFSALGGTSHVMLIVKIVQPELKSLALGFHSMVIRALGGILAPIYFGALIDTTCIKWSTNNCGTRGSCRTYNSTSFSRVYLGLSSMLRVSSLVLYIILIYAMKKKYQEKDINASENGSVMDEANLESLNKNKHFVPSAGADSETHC
Test: Stimulation of human OATP1B1-mediated [3H]estrone 3-sulfate at 100 uM after 5 mins relative to control
Type: ADME
result type: Activity (%)

O=P1(N(CCCl)CCCl)NCCCO1 (stereo unspecified) [CYCLOPHOSPHAMIDE ANHYDROUS] | 5.6
O=C(O)CCCc1ccc(N(CCCl)CCCl)cc1 | 18.8
Nc1nc(Cl)nc2c1ncn2[C@H]1C[C@H](O)[C@@H](CO)O1 | 15.9
S=P(N1CC1)(N1CC1)N1CC1 | 11.9
CCc1c2c(nc3ccc(OC(=O)N4CCC(N5CCCCC5)CC4)cc13)-c1cc3c(c(=O)n1C2)COC(=O)[C@]3(O)CC | 93.3
O=P1(NCCCl)OCCCN1CCCl (stereo unspecified) [IFOSFAMIDE] | 7.4
